tested on: S. aureus; test: Minimal inhibitory concentration (MIC), broth microdilution; assay type: cell-based, Staphylococcus aureus; conditions: Staphylococcus aureus, S. aureus BF10; read-out: Minimum inhibitory concentration
Experimental Endpoint: MIC (µg/mL)
Please state the figure in µg/mL; there is no need to write the unit.

Query: Find the recorded MIC belonging to O=C(O)/C=C/c1ccc(-c2ccc(O)c(C34CC5CC(CC(C5)C3)C4)c2)cc1 and report it.
Response: 2

Query: Find the recorded MIC belonging to O=C(O)c1ccc2cc(-c3ccc(O)c(C45CC6CC(CC(C6)C4)C5)c3)ccc2c1 and report it.
Response: 1

Query: Find the recorded MIC belonging to O=C(O)c1ccc(-c2ccc3cc(O)c(C45CC6CC(CC(C6)C4)C5)cc3c2)cc1 and report it.
Response: 1

----------
Consider the following compounds; for each one, report its MIC.
Test system: S. aureus
Experiment: Minimal inhibitory concentration (MIC), broth microdilution
Format: cell-based, Staphylococcus aureus
Settings: Staphylococcus aureus, S. aureus BF1; read-out: Minimum inhibitory concentration
Text: Bacterial strains and growth conditions and persister isolation: methicillin-resistant S. aureus (MRSA) strain MW2 BAA-1707, vancomycin-resistant S. aureus strain VRS 1, 11 clinical S. aureus isolates, 8 clinical Enterococcus faecium isolates, Klebsiella pneumoniae WGLW2 (BEI Resources, Manassas, Va., USA), Acinetobacter baumannii ATCC 17978, Pseudomonas aeruginosa PA14, and Enterobacter aerogenes ATCC 13048 were used to test antimicrobial activity (See Table 1a). […]
Please state the figure in µg/mL; there is no need to write the unit.

Query: Find the recorded MIC belonging to O=C(O)c1ccc(-c2ccc3cc(O)c(C45CC6CC(CC(C6)C4)C5)cc3c2)cc1 and report it.
Response: 2

Query: Find the recorded MIC belonging to O=C(O)c1ccc2cc(-c3ccc(O)c(C45CC6CC(CC(C6)C4)C5)c3)ccc2c1 and report it.
Response: 2

Query: Find the recorded MIC belonging to O=C(O)/C=C/c1ccc(-c2ccc(O)c(C34CC5CC(CC(C5)C3)C4)c2)cc1 and report it.
Response: 4

----------
Consider the following compounds; for each one, report its MIC.
tested on: S. aureus; test: Minimal inhibitory concentration (MIC), broth microdilution; type: cell-based, Staphylococcus aureus; conditions: Staphylococcus aureus, S. aureus BF4; read-out: Minimum inhibitory concentration
Please state the figure in µg/mL; there is no need to write the unit.

Query: Enter reported MIC observed with S. aureus for O=C(O)c1ccc2cc(-c3ccc(O)c(C45CC6CC(CC(C6)C4)C5)c3)ccc2c1 [CD437]
Response: 2

Query: Enter reported MIC observed with S. aureus for O=C(O)c1ccc(-c2ccc3cc(O)c(C45CC6CC(CC(C6)C4)C5)cc3c2)cc1 [CD1530]
Response: 1

Query: Enter reported MIC observed with S. aureus for O=C(O)/C=C/c1ccc(-c2ccc(O)c(C34CC5CC(CC(C5)C3)C4)c2)cc1 [Adarotene]
Response: 2

Query: Enter reported MIC observed with S. aureus for Cc1onc(-c2ccccc2)c1C(=O)N[C@@H]1C(=O)N2[C@@H]1SC(C)(C)[C@@H]2C(=O)O [Oxacillin]
Response: 16

----------
system: Salmonella typhimurium strains TA 1535 and TA 1538; settings: With S9; 5 μg/plate
Experimental Endpoint: Number of revertants (T1535)
In your answer, state the number alone without any accompanying words.

Query: Find the recorded Number of revertants (T1535) belonging to O=C(O)c1ccc(-c2ccc3cc(O)c(C45CC6CC(CC(C6)C4)C5)cc3c2)cc1 and report it.
Response: 7

Query: Find the recorded Number of revertants (T1535) belonging to O=C(O)c1ccc2cc(-c3ccc(O)c(C45CC6CC(CC(C6)C4)C5)c3)ccc2c1 and report it.
Response: 6

Query: Find the recorded Number of revertants (T1535) belonging to O=C(O)/C=C/c1ccc(-c2ccc(O)c(C34CC5CC(CC(C5)C3)C4)c2)cc1 and report it.
Response: 6

Query: Find the recorded Number of revertants (T1535) belonging to Nc1ccc2cc3ccccc3cc2c1 and report it.
Response: 263

----------
Consider the following molecules; for each one, report its MIC.
Test system: E. faecium
Experiment: MIC, broth microdilution
Assay type: cell-based, Enterococcus faecium
Conditions: Enterococcus faecium, E. faecium D24; read-out: Minimum inhibitory concentration
Text: Bacterial strains and growth conditions and persister isolation: methicillin-resistant S. aureus (MRSA) strain MW2 BAA-1707, vancomycin-resistant S. aureus strain VRS 1, 11 clinical S. aureus isolates, 8 clinical Enterococcus faecium isolates, Klebsiella pneumoniae WGLW2 (BEI Resources, Manassas, Va., USA), Acinetobacter baumannii ATCC 17978, Pseudomonas aeruginosa PA14, and Enterobacter aerogenes ATCC 13048 were used to test antimicrobial activity (See Table 1a). […]
Please state the figure in µg/mL; there is no need to write the unit.

Query: Find the recorded MIC belonging to O=C(O)c1ccc(-c2ccc3cc(O)c(C45CC6CC(CC(C6)C4)C5)cc3c2)cc1 [CD1530] and report it.
Response: 1

Query: Find the recorded MIC belonging to O=C(O)c1ccc2cc(-c3ccc(O)c(C45CC6CC(CC(C6)C4)C5)c3)ccc2c1 [CD437] and report it.
Response: 1

Query: Find the recorded MIC belonging to O=C(O)/C=C/c1ccc(-c2ccc(O)c(C34CC5CC(CC(C5)C3)C4)c2)cc1 [Adarotene] and report it.
Response: 2

----------
tested on: Salmonella typhimurium strains TA 1535 and TA 1538; details: With S9; 5 μg/plate
Consider the following molecules; for each one, report its Number of revertants (T1538).

Query: Find the recorded Number of revertants (T1538) belonging to O=C(O)c1ccc(-c2ccc3cc(O)c(C45CC6CC(CC(C6)C4)C5)cc3c2)cc1 [CD1530] and report it.
Response: 7 ± 3

Query: Find the recorded Number of revertants (T1538) belonging to O=C(O)/C=C/c1ccc(-c2ccc(O)c(C34CC5CC(CC(C5)C3)C4)c2)cc1 [Adarotene] and report it.
Response: 8 ± 4

Query: Find the recorded Number of revertants (T1538) belonging to O=C(O)c1ccc2cc(-c3ccc(O)c(C45CC6CC(CC(C6)C4)C5)c3)ccc2c1 [CD437] and report it.
Response: 9 ± 3

Query: Find the recorded Number of revertants (T1538) belonging to Nc1ccc2cc3ccccc3cc2c1 [2AA, 2-Aminoanthracene] and report it.
Response: 2568 ± 108

----------
tested on: S. aureus; test: Minimal inhibitory concentration (MIC), broth microdilution; assay type: cell-based, Staphylococcus aureus; settings: Staphylococcus aureus, S. aureus VRS1; read-out: Minimum inhibitory concentration
Consider the following compounds; for each one, report its MIC.
Please state the figure in µg/mL; there is no need to write the unit.

Query: Find the recorded MIC belonging to O=C(O)c1ccc(-c2ccc3cc(O)c(C45CC6CC(CC(C6)C4)C5)cc3c2)cc1 and report it.
Response: 1

Query: Find the recorded MIC belonging to O=C(O)c1ccc2cc(-c3ccc(O)c(C45CC6CC(CC(C6)C4)C5)c3)ccc2c1 and report it.
Response: 1

Query: Find the recorded MIC belonging to O=C(O)/C=C/c1ccc(-c2ccc(O)c(C34CC5CC(CC(C5)C3)C4)c2)cc1 and report it.
Response: 1

----------
system: S. aureus; assay: Minimal inhibitory concentration (MIC), broth microdilution; assay type: cell-based, Staphylococcus aureus; conditions: Staphylococcus aureus, S. aureus BF3; read-out: Minimum inhibitory concentration
Consider the following molecules; for each one, report its MIC.
Please state the figure in µg/mL; there is no need to write the unit.

Query: Find the recorded MIC belonging to Cc1onc(-c2ccccc2)c1C(=O)N[C@@H]1C(=O)N2[C@@H]1SC(C)(C)[C@@H]2C(=O)O and report it.
Response: 32

Query: Find the recorded MIC belonging to O=C(O)c1ccc(-c2ccc3cc(O)c(C45CC6CC(CC(C6)C4)C5)cc3c2)cc1 and report it.
Response: 1

Query: Find the recorded MIC belonging to O=C(O)c1ccc2cc(-c3ccc(O)c(C45CC6CC(CC(C6)C4)C5)c3)ccc2c1 and report it.
Response: 1

Query: Find the recorded MIC belonging to O=C(O)/C=C/c1ccc(-c2ccc(O)c(C34CC5CC(CC(C5)C3)C4)c2)cc1 and report it.
Response: 2

----------
system: E. faecium; experiment: MIC, broth microdilution; type: cell-based, Enterococcus faecium; conditions: Enterococcus faecium, E. faecium D25; read-out: Minimum inhibitory concentration
Experimental Endpoint: MIC (µg/mL)
Please state the figure in µg/mL; there is no need to write the unit.

Query: Enter reported MIC observed with E. faecium for O=C(O)c1ccc(-c2ccc3cc(O)c(C45CC6CC(CC(C6)C4)C5)cc3c2)cc1
Response: 1

Query: Enter reported MIC observed with E. faecium for O=C(O)/C=C/c1ccc(-c2ccc(O)c(C34CC5CC(CC(C5)C3)C4)c2)cc1
Response: 4

Query: Enter reported MIC observed with E. faecium for O=C(O)c1ccc2cc(-c3ccc(O)c(C45CC6CC(CC(C6)C4)C5)c3)ccc2c1
Response: 1
